Each entry below lists one item and its recorded WBC value.
Species: Rattus norvegicus
Assay: Open TG-GATES - Regimen: Daily Repeat
Type: toxicity, organism-based, Sprague-Dawley
Set-up: regimen Daily Repeat, gender Male, age 6 weeks
Conditions: in vivo, po, 0 mg/kg, 72 h, tissue Blood, route gavage, dose level Control, time 3 day
READOUT_NAME: WBC

| COMPOUND | RESULT |
| --- | --- |
| Cc1nnc2n1-c1ccc(Cl)cc1C(c1ccccc1Cl)=NC2 | 85.5 x10_2/uL |
| NC1=NC(=O)C(c2ccccc2)O1 (centres undefined) | 90 x10_2/uL |
| CCCc1cc(=O)[nH]c(=S)[nH]1 | 141.8 x10_2/uL |
| CN1C(=O)CCS(=O)(=O)C1c1ccc(Cl)cc1 (centres undefined) | 81.1 x10_2/uL |
